Each item that follows carries a reported pIC50.
Tested on: Plasmodium falciparum
Assay: Inhibition of Plasmodium falciparum W2
Details: read-out: IC50
pIC50: −log10 of the molar value.
test readout: pIC50

{"compound structure string": "COc1ccc(/C=C/C(=O)c2ccncc2)cc1", "test readout": "pIC50", "value measured": 4.92}
{"compound structure string": "COc1ccc(/C=C/C(=O)c2cccc3ccccc23)c(OC)c1OC", "test readout": "pIC50", "value measured": 5.24}
{"compound structure string": "COc1ccc(OC)c(/C=C/C(=O)c2ccc3ccccc3c2)c1", "test readout": "pIC50", "value measured": 5.30}
{"compound structure string": "COc1ccc(/C=C/C(=O)c2ccc3ccccc3c2)cc1OC", "test readout": "pIC50", "value measured": 5.11}
{"compound structure string": "COc1ccc(/C=C/C(=O)c2ccc(F)cc2F)c(OC)c1", "test readout": "pIC50", "value measured": 5.72}
{"compound structure string": "COc1ccc(/C=C/C(=O)c2cccc(Cl)c2Cl)cc1OC", "test readout": "pIC50", "value measured": 5.94}
